src = PubChem BioAssay (Tox21)

- assay details: qHTS assay for identifying genotoxic compounds that show differential cytotoxicity against isogenic chicken DT40 cell lines with known DNA damage response pathways - Rad54/Ku70 mutant cell line (AID 743015); note: nearly all actives have a fitted effect of over 60% in size
- condition label: DT40 Rad54/Ku70 mutant viability, CellTiter-Glo, 40 h; series mostly up to 66.8 µM
Results filed as inconclusive are left out. Activity calls are given as the source filed them. Calls come from the whole dose curve; as a rule, active = well fitted cell-killing curve with a large enough effect in the repeat runs; inconclusive = weak or mixed curves; inactive = no such curve, though single readings can be large or run the other way.
Labels: 1 (yes) (active), 0 (no) (inactive)

> print(dat)
                                    molecule  group.label
 1                              CN(C)C(=O)Cl       0 (no)
 2  O=C(O)c1cc(Oc2ccc(C(F)(F)F)cc2Cl)ccc1[N+](=O)[O-]       0 (no)
 3                          O=C/C=C/c1ccccc1       0 (no)
 4                             Oc1ccc(Cl)cc1       0 (no)
 5  COC(C)(C)CCCC(C)C/C=C/C(C)=C/C(=O)OC(C)C (stereo not drawn)       0 (no)
 6                           ClC(Cl)c1ccccc1       0 (no)
 7            O=C(O)CCCc1ccc(N(CCCl)CCCl)cc1      1 (yes)
 8                          c1ccc2c(c1)CCCC2       0 (no)
 9       O=[N+]([O-])c1cc([As](=O)(O)O)ccc1O       0 (no)
10                            CC[N+](=O)[O-]       0 (no)
11  O=P1(NCCCl)OCCCN1CCCl (stereo not drawn)       0 (no)
12             CN(C)C(=O)C(c1ccccc1)c1ccccc1       0 (no)
13            CNC(=O)O/N=C/C(C)(C)S(C)(=O)=O       0 (no)
14             CN(C)C(=O)Nc1cccc(C(F)(F)F)c1       0 (no)
15       CCCCC(CC)C(=O)Cl (stereo not drawn)       0 (no)
16                                 C=CCN=C=S       0 (no)
17                    Nc1ncc([N+](=O)[O-])s1       0 (no)
18                             Cc1cccc(N)c1C       0 (no)
19                                CN(C)CCC#N       0 (no)
20                CCCOC(=O)c1ccccc1C(=O)OCCC       0 (no)
21                    O=S(=O)(O)OOS(=O)(=O)O       0 (no)
22                          O=C(O)COc1ccccc1       0 (no)
23                          CC(C)(C)C(=O)CCl       0 (no)
24                         CCSC(=O)N1CCCCCC1       0 (no)
25                                 ClCCOCCCl       0 (no)
26        CC(=O)C1CCOC1=O (stereo not drawn)       0 (no)
27                         Nc1cc(Cl)cc(Cl)c1       0 (no)
28     CNc1cnn(-c2cccc(C(F)(F)F)c2)c(=O)c1Cl       0 (no)
